test system: MUTZ-3 cells
Reported metric: cytotox

// known answers, use as guide
Nc1ccccc1: no
CC(C=O)Cc1ccc(C(C)(C)C)cc1 (stereo not shown): yes
c1ccncc1: no
NC[C@H]1O[C@H](O[C@H]2[C@H](O)[C@@H](O[C@H]3O[C@H](CO)[C@@H](O)[C@H](N)[C@H]3O)[C@H](N)C[C@@H]2N)[C@H](O)[C@@H](O)[C@@H]1O: no

Input: Returns the measured cytotox for the input molecule. Input: CCCCOCC1CO1 (stereo not shown)
Output: yes

Input: Recorded cytotox of CC(C)(c1ccc(OCC2CO2)cc1)c1ccc(OCC2CO2)cc1 (stereo not shown) , please.
Output: yes

Input: So what does the record say about cytotox for "O=C(O)c1ccccc1" ?
Output: no

Origin of measurements: patent EP3417074B1
